Listed here: items and their measured protein stability index.
B1: SNAP91 (parent)
chain: FAQPMMRPPFGAAAVPGTQLSPSP

variants of: B1; assay: protein stability index of a GFP-peptide fusion (GPS, HEK-293T) (PSI 1-6); higher = more stable; conditions: c terminus: a fixed tail appended;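 also: lentivirally expressed fusions sorted by FACS into six bins by GFP to DsRed ratio, PSI derived from sequencing read proportions per bin multiplied by bin number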
Write the number on its own, no unit after it.

{"SEQUENCE_STRING": "FAQPMMRPPFGADAVPGTQLSPSP [A13D]", "ENDPOINT_RESULT": 3.38}
{"SEQUENCE_STRING": "FAQPMMRPPFGAAAVPGTQLSSSP [P22S]", "ENDPOINT_RESULT": 2.96}
{"SEQUENCE_STRING": "FAQPMMRPPFGAAAVRGTQLSPSP [P16R]", "ENDPOINT_RESULT": 3.36}
{"SEQUENCE_STRING": "FAQPMMRPPFGAAAVPGTQKSPSP [L20K]", "ENDPOINT_RESULT": 3.29}
{"SEQUENCE_STRING": "FAQPMMRPPFGAAAVPGTQLWPSP [S21W]", "ENDPOINT_RESULT": 2.89}

# ---- query variant ----
Incoming: Recorded protein stability index of FAAPMMRPPFGAAAVPGTQLSPSP [Q3A] , please.
Outgoing: 3.3
